Where do these numbers come from? They come from PubChem BioAssay.

Biological target: Nuclear receptor coactivator 1 (Homo sapiens) (UniProt Q15788)
Sequence (Q15788 whole entry, looked up): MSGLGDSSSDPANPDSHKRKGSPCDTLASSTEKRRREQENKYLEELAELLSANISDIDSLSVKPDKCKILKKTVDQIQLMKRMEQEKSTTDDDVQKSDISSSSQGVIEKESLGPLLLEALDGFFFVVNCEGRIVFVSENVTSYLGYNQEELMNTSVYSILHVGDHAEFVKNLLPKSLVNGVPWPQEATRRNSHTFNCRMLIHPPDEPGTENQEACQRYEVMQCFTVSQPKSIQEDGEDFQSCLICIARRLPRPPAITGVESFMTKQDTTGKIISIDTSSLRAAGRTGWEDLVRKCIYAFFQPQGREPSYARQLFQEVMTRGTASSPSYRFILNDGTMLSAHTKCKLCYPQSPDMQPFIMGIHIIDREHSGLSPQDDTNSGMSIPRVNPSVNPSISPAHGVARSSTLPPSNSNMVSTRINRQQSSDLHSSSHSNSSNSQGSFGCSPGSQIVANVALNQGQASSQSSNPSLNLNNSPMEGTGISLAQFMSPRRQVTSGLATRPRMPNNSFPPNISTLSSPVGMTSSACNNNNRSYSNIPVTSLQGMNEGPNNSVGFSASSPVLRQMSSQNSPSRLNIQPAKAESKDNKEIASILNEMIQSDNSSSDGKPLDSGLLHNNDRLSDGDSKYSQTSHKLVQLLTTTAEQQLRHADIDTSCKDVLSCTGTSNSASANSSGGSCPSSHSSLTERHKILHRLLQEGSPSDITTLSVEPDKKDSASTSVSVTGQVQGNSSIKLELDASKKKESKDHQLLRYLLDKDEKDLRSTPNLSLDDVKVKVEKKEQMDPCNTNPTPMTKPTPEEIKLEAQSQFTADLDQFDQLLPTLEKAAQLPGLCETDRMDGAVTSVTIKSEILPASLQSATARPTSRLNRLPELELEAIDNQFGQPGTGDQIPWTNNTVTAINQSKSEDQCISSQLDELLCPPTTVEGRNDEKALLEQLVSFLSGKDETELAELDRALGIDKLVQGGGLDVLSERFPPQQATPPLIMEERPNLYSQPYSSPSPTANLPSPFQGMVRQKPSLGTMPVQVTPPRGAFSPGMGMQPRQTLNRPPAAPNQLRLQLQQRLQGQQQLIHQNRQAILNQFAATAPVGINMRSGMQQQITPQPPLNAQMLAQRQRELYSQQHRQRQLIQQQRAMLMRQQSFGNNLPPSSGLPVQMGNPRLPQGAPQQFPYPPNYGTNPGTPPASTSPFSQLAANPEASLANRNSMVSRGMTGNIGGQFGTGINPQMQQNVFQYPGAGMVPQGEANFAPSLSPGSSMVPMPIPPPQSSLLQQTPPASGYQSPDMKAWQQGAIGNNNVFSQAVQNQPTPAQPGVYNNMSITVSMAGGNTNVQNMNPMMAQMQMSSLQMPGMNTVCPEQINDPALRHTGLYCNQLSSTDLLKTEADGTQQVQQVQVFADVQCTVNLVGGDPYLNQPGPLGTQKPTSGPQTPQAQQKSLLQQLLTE
Experiment: SRC1 coactivator transcriptional activity inhibitors, confirmation, cell-based, luminescence, quadruplicate (AID 588820);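 further: 0% = DMSO wells and 100% = gossypol 36 µM treated wells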
Settings: HEK293 GAL4-SRC1 luciferase reporter, at 3.6 µM
Activity calls are given as the source filed them.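 How the source made its calls: active means mean inhibition above 46.68%, the untreated control wells mean plus 3 SD; inactive means the rest.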
Could you please pick one outcome from this set? Yes for active, No for inactive

Solved cases (2 shown):
CC1CC(C)(O)CC(C(O)CC2CC(=O)NC(=O)C2)C1=O (stereo not given) :: Yes
O=Cc1cn(Cc2cccc([N+](=O)[O-])c2)c2ccccc12 :: No

Req: Answer briefly: the call reported for COc1cccc2c1C(=O)c1c(O)c3c(c(O)c1C2=O)CC(O)(C(C)=NO)CC3OC1CC(N)C(O)C(C)O1 (stereo not given) in this assay.
Resp: No

Req: Answer briefly: the call reported for CC(=NCc1ccc(F)cc1)c1c(O)n(C)c(=O)n(C)c1=O in this assay.
Resp: No

Req: Answer briefly: the call reported for Cc1ccccc1-[n+]1c(-c2ccccc2)cc(-c2ccccc2)cc1-c1ccccc1 in this assay.
Resp: Yes

Req: Answer briefly: the call reported for Cc1cc(-c2ccccc2)cc(-c2ccccc2)[n+]1CCc1ccccc1 in this assay.
Resp: No

Req: Answer briefly: the call reported for CC[C@@]1(O)C(=O)OCc2c1cc1n(c2=O)Cc2cc3c(NC(=O)CN)cccc3nc2-1 in this assay.
Resp: Yes

Req: Answer briefly: the call reported for CCCCC(CC)COCCCN=Cc1c(O)[nH]c(=S)[nH]c1=O (stereo not given) in this assay.
Resp: No

Req: Answer briefly: the call reported for O=C1NC2C(=CC(O)C(O)C2O)c2cc3c(cc21)OCO3 (stereo not given) in this assay.
Resp: Yes

Req: Answer briefly: the call reported for O=c1[nH]c(O)c(N=Nc2ccc3c(c2)OCCO3)c(=O)[nH]1 in this assay.
Resp: No

---

Test system: transactivating tegument protein VP16 (Human herpesvirus 1)
Test: VP16 transactivation reporter inhibitors, counter-screen for SRC2 inhibitor project, cell-based, luminescence, single concentration (AID 652007)
Settings: cell-based VP16 transactivation luciferase reporter, at 8.9 µM
Active and inactive are the calls of the source. Rule as the data show it: active = inhibition above about 36%; inactive = the rest.
Could you please pick one outcome from this set? T (active), F (inactive)

Nc1ncnc2c1ccn2[C@@H]1O[C@H](CO)[C@@H](O)[C@H]1O :: T
O=[N+]([O-])c1ccc(N(CCO)CCO)c2c1no[n+]2[O-] :: F
CC(=O)O[C@H]1C[C@@H]2OC3C=C(C)CCC3(C)[C@@]1(C)[C@@]21CO1 (stereo not given in full) :: T
COC(=O)c1ccc(NC(=O)CSc2nc3ccc(N4C(=O)C5C6C=CC(C6)C5C4=O)cc3s2)cc1 (stereo not given) :: F

--- query ---
Req: Answer briefly: the call reported for COC(=O)C1=C(C(=O)OC)C2c3ccccc3C1c1ccccc12 in this assay.
Resp: F

---

Give inhibition for every item shown.
Tested on: transactivating tegument protein VP16 (Human herpesvirus 1)
Test: VP16 transactivation reporter inhibitors, counter-screen for SRC2 inhibitor project, cell-based, luminescence, single concentration (AID 652007)
Settings: cell-based VP16 transactivation luciferase reporter, at 8.9 µM, hits give high values
Answers are plain numbers, in %.

# annotated cases, reported inhibition shown
C[C@@H]1O[C@@H](O[C@@H]2C=C3CC[C@@H]4C(CC[C@]5(C)[C@@H](c6ccc(=O)oc6)CC[C@]45O)[C@@]3(C)CC2)[C@H](O)[C@H](O)[C@H]1O (stereo partly drawn) :: 67.9
COC(=O)C1=C(c2ccc(-c3ccccc3)c(F)c2)C[C@@H]2CC[C@H]1N2C(=O)NCc1ccc(F)cc1 :: -5.9
CC(=O)OCC12CC(OC(=O)CC(C)C)C(C)=CC1OC1C(O)C(OC(C)=O)C2(C)C12CO2 (stereo not drawn) :: 79.1
CN1C2CCC1/C(=C/c1ccccn1)C(=O)/C2=C\c1ccccn1 :: 75
COc1cc2nc(CN3CC=C(c4ccccc4)CC3)[nH]c(=O)c2cc1OC :: -4.49

Quick request: inhibition for each listed item, please.
1. CC(=O)OC1CC(OC2C(O)CC(OC3C(O)CC(OC4CCC5(C)C(CCC6C5CCC5(C)C(C7=CC(=O)OC7)C(O)CC65O)C4)OC3C)OC2C)OC(C)C1OC1OC(CO)C(O)C(O)C1O (stereo not drawn)
2. CC(=O)OC1C(O)C(C)OC(OC2C(OC(=O)C3CCC4C(C3)OC3(CC(OC(=O)/C=C/c5ccccc5)C(C)CO3)C43CO3)OC(C)C(O)C2OC(C)=O)C1O (stereo not drawn)
3. N#Cc1c(Br)n(C2OC(CO)C(O)C2O)c2ncnc(N)c12 (stereo not drawn)

Resp:
[61.8, 79.4, -16.7]
